Exercise: for every item that follows, state its recorded GI50.
- System: SNB-19
- assay-notes: NCI tumour cell line growth inhibition, 48 h
The source made the active and inactive calls. Cut-off read from the data, not from the text of the source: active = GI50 up to about 1.1 µM and inactive = higher.

If you can, please state the reported GI50 value of COC(=O)C1=CC[C@@H]2C(C(=O)O)=CO[C@@H](OC3OC(CO)C(O)C(O)C3O)[C@H]12 (stereo not given in full) .
> 300 µM (inactive)

Param item = O/N=C1/C(=C/c2ccc3c(c2)OCO3)CCCC1C(NO)c1ccc2c(c1)OCO2 (stereo not given) ; retrieve measured GI50.
32.4 µM (inactive)

Tell me the measured GI50 of CCOC(=O)C12CCC(c3c(C)cccc3C)(O1)C(C(=O)OC)=C2C(=O)OC (stereo not given) , please.
> 9.64 µM (inactive)

Query (molecule): C[C@H]1CC(=O)C2=CCCC3(SCCCS3)[C@@H]2[C@H]1CO ; field requested: GI50
> 100 µM (inactive)

Record request: GI50 value, item COc1cc(OC)c(SSCCCCS(=O)O)c(OC)c1
17.5 µM (inactive)

Requested field: GI50. Item: CN1N(c2ccccc2)C(=O)C2=NC=C(C(=O)c3ccccc3)C(=N)C21C (stereo not given)
> 100 µM (inactive)

What measured GI50 goes with Cc1c2c(c(C)n1-c1ccccc1)C(=O)N(CCCCN1CCN(c3ccccc3)CC1)C2=O ?
29 µM (inactive)

Returns the measured GI50 for the input molecule. Input: COC(=O)c1ccc(-n2c(C)nc(=O)c(-c3ccccc3)c2C)cc1
> 100 µM (inactive)

For the molecule CCOC(=O)c1nc2ccc(C(F)(F)F)cc2nc1Oc1ccc(C#N)cc1 , what GI50 is on record?
17.7 µM (inactive)

Given the entry O=[N+]([O-])c1ccc(Sc2c3ccccc3nc3ccccc23)cc1 , report its measured GI50.
> 100 µM (inactive)

Which value of GI50 has been reported for O=C1CSC(c2ccc([N+](=O)[O-])cc2)N1c1nc(-c2ccc3c(c2)CCCC3)cs1 (stereo not given) in the records?
> 100 µM (inactive)

Fill in: GI50 of COc1ccc(-c2cnoc2-c2ccc(OC)c(OC)c2)cc1OC is ___
4.15 µM (inactive)

Name the reported GI50 value associated with the molecule O=C1/C(=C/c2ccc3c(c2)OCO3)Sc2scc(-c3ccc(O)c(O)c3)[n+]21
10.7 µM (inactive)

Look at this molecule and give its reported GI50. O=C(c1ccccc1)c1cn(/N=C\c2ccccc2)c(=O)nc1-c1ccccc1
> 100 µM (inactive)

Recorded GI50 of O=Cc1ccccc1COC(=O)c1cc(C(=O)OCc2ccccc2C=O)c(C(=O)OCc2ccccc2C=O)cc1C(=O)OCc1ccccc1C=O , please.
> 100 µM (inactive)

Would you kindly share the measured GI50 for CC1(C)CC2(S(=O)(=O)c3ccccc3)ON1CC2S(=O)(=O)c1ccccc1 (stereo not given) ?
> 100 µM (inactive)

Using the record for CNc1c2c(c3nc4ccccc4c4c3c1N=C4)NCCC2=O [PLAKINIDINE A] , report its GI50.
> 10 µM (inactive)

# lookup: GI50 of O=C(Nc1ccc(Cl)cc1C(F)(F)F)C(=O)C1CCCS1(=O)=O (stereo not given)
> 100 µM (inactive)

Requested read-out: GI50. Entry: CSc1nc(NC2OCC(OC(C)=O)C(OC(C)=O)C2OC(C)=O)c2c(n1)OCC2=O (stereo not given)
> 100 µM (inactive)

Find the recorded GI50 belonging to CCO/C=N/C1=C(C#N)C(c2ccc(Cl)cc2)c2c(-c3ccccc3)nn(-c3ccccc3)c2O1 (stereo not given) and report it.
12.7 µM (inactive)
